System: A2780
Assay: Antiproliferative activity against human A2780 cells assessed as cell viability incubated for 48 hrs by MTS assay
Format: functional, cell-based
Settings: A2780, 48 h
readout-type: IC50 (µM)
Write the number in µM without appending the unit.

For record `CC(C)(C)C1=NN(c2ccccc2)[C@]2(C(=O)Nc3ccc(Br)cc32)[C@H]1c1ccccc1` the listed IC50 is 12.1

Looking up `CC(C)(C)C1=NN(c2ccccc2)[C@]2(C(=O)Nc3cc(Cl)c(F)cc32)[C@H]1c1cccc(Cl)c1` , I found its IC50 recorded as 11.4

---

pIC50 values, listed per item
System: Fibroblast
Experiment: Cytotoxicity against human fibroblasts cells assessed as cell viability incubated for 48 hrs by MTS assay
Assay type: cell-based
Friendly reminder that pIC50 comes from taking -log10 of the concentration in mol/L.

Use these answered entries as a reference point.
In plain terms, `CC(C)(C)C1=NN(c2ccc(Cl)cc2)[C@]2(C(=O)Nc3cc(Cl)c(F)cc32)[C@H]1c1cccc(Cl)c1F` has a documented pIC50 of 4.89

// `CC(C)(C)C1=NN(c2ccccc2)[C@]2(C(=O)Nc3cc(Cl)c(F)cc32)[C@H]1c1cccc(Cl)c1F` : pIC50 value = 4.76

Measured pIC50 of `CC(C)(C)C1=NN(c2ccccc2)[C@]2(C(=O)Nc3ccc(Br)cc32)[C@H]1c1ccccc1` : 4.80

Entry `O=C1Nc2ccc(Br)cc2[C@]12[C@@H](c1ccccc1)C(c1ccccc1)=NN2c1ccccc1` ; pIC50 = 4.26

Continuing:
Lookup result for `CC(C)(C)C1=NN(c2ccccc2)[C@]2(C(=O)Nc3cc(Cl)c(F)cc32)[C@H]1c1cccc(Cl)c1` ; measured pIC50: 4.83
